Assay: Metabolic stability in liver S9 fraction (disappearance, half-life, CLint)
Conditions: Syrian, hamster, s9, pH 7.4
ENDPOINT NAME: microsomal CLint at 1 µM

Look up microsomal CLint at 1 µM for this molecule: Cc1ncc2n1-c1ccc(Cl)cc1C(c1ccccc1F)=NC2 [midazolam, Midazolam, reference compound]
> 75 µL/min/mg

###

I'd appreciate it if you could supply half-life at 1 µM values for the items below.
Experiment: Metabolic stability in liver S9 fraction (disappearance, half-life, CLint)
Settings: Syrian, hamster, pooled liver S9, pH 7.4
Quick reminder: number only, in min, skip the unit.

Look up half-life at 1 µM for this compound: CCCCCCCCCCCCCCCCCCOCCOCCOCCO
29

Look up half-life at 1 µM for this compound: CCCCCCCCCCCCCCCCOCCOCCOCCOCCOCCOCCOCCOCCO
118

Look up half-life at 1 µM for this compound: CCCCCCCCOCCOCCOCCOCCO
7.7

Look up half-life at 1 µM for this compound: CCCCCCCCCCOCCOCCOCCOCCOCCO
8.1

Source: paper PMC11272826
